Target: CDK6 (Homo sapiens, UniProt Q00534)
Construct: endogenous in cells
Sequence (Q00534 whole entry): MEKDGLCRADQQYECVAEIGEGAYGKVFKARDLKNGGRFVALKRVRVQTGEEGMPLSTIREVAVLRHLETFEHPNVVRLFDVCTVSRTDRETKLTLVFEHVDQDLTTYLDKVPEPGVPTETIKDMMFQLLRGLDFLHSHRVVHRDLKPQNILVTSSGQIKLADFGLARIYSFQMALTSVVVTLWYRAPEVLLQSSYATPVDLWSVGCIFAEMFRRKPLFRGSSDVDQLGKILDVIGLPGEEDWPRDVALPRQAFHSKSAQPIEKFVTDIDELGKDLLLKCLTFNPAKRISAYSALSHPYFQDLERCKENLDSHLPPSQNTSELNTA
Assay: CDK6 degradation (DC50, Dmax)
Type: cell-based
Readout Type: Dmax

Completed entries (count: 6):
[[record]]
compound = "CN(C)C(=O)c1cc2cnc(Nc3ccc(N4CCN(CCCNc5ccc6c(c5)C(=O)N(C5CCC(=O)NC5=O)C6=O)CC4)cn3)nc2n1C1CCCC1 (centres unmarked) [Compound 75]"
readout_type = "Dmax"
meas_value = "> 80%"

[[record]]
compound = "CC(=O)c1c(C)c2cnc(Nc3ccc(N4CCN(CCCCNc5ccc6c(c5)C(=O)N(C5CCC(=O)NC5=O)C6=O)CC4)cn3)nc2n(C2CCCC2)c1=O (centres unmarked) [Compound 53]"
readout_type = "Dmax"
meas_value = "> 80%"

[[record]]
compound = "Cc1nc2c(F)cc(-c3nc(Nc4ccc(CN5CCN(C6CN(c7cccc8c7C(=O)N(C7CCC(=O)NC7=O)C8=O)C6)CC5)cn4)ncc3F)cc2n1C(C)C (centres unmarked) [Compound 98]"
readout_type = "Dmax"
meas_value = "> 80%"

[[record]]
compound = "Cc1nc2c(F)cc(-c3nc(Nc4ccc(CN5CCN(CC6CCN(c7ccc(C(=O)NC8CCC(=O)NC8=O)cc7)CC6)CC5)cn4)ncc3F)cc2n1C(C)C (centres unmarked) [Compound 151]"
readout_type = "Dmax"
meas_value = "> 60%"

[[record]]
compound = "CC(=O)c1c(C)c2cnc(Nc3ccc(N4CCN(CCCNc5ccc6c(c5)CN(C5CCC(=O)NC5=O)C6=O)CC4)cn3)nc2n(C2CCCC2)c1=O (centres unmarked) [Compound 50]"
readout_type = "Dmax"
meas_value = "> 80%"

[[record]]
compound = "CC(=O)c1c(C)c2cnc(Nc3ccc(N4CCN(C5CCN(C(=O)N6CCN(c7ccc8c(c7)CN(C7CCC(=O)NC7=O)C8=O)CC6)CC5)CC4)cn3)nc2n(C2CCCC2)c1=O (centres unmarked) [Compound 36]"
readout_type = "Dmax"
meas_value = "> 60%"


Give Dmax for each listed item.
1. CC(=O)c1c(C)c2cnc(Nc3ccc(N4CCN(CC5CCN(C(=O)N6CCC(c7ccc8c(c7)C(=O)N(C7CCC(=O)NC7=O)C8=O)CC6)CC5)CC4)cn3)nc2n(C2CCCC2)c1=O (centres unmarked) [Compound 33]
2. Cc1nc2c(F)cc(-c3nc(Nc4ccc(CC5CCN(C(=O)C6CCN(c7ccc8c(c7)CN(C7CCC(=O)NC7=O)C8=O)CC6)CC5)cn4)ncc3F)cc2n1C(C)C (centres unmarked) [Compound 162]
3. CC(=O)c1c(C)c2cnc(Nc3ccc(N4CCN(C5CCN(C(=O)N6CCC(N7CCN(c8ccc9c(c8)C(=O)N(C8CCC(=O)NC8=O)C9=O)CC7)CC6)CC5)CC4)cn3)nc2n(C2CCCC2)c1=O (centres unmarked) [Compound 88]
4. CC(=O)c1c(C)c2cnc(Nc3ccc(N4CCN(CC5CCN(c6ccc7c(c6)C(=O)N(C6CCC(=O)NC6=O)C7=O)CC5)CC4)cn3)nc2n(C2CCCC2)c1=O (centres unmarked) [Compound 65]
5. CC(=O)c1c(C)c2cnc(Nc3ccc(N4CCN(C(=O)N5CCC(N6CCN(c7ccc8c(c7)CN(C7CCC(=O)NC7=O)C8=O)CC6)CC5)CC4)cn3)nc2n(C2CCCC2)c1=O (centres unmarked) [Compound 4]

result:
1: > 50%; 2: > 60%; 3: > 50%; 4: > 80%; 5: > 50%

Give Dmax for each listed item.
1. CC(=O)c1c(C)c2cnc(Nc3ccc(N4CCN(C(=O)N5CCC(CC6CCN(c7ccc8c(c7)C(=O)N(C7CCC(=O)NC7=O)C8=O)CC6)CC5)CC4)cn3)nc2n(C2CCCC2)c1=O (centres unmarked) [Compound 13]
2. CC(=O)c1c(C)c2cnc(Nc3ccc(N4CCN(CCCCN(C)c5ccc6c(c5)C(=O)N(C5CCC(=O)NC5=O)C6=O)CC4)cn3)nc2n(C2CCCC2)c1=O (centres unmarked) [Compound 59]
3. CC(=O)c1c(C)c2cnc(Nc3ccc(N4CCN(CCN(C)c5ccc6c(c5)C(=O)N(C5CCC(=O)NC5=O)C6=O)CC4)cn3)nc2n(C2CCCC2)c1=O (centres unmarked) [Compound 55]
4. Cc1nc2c(F)cc(-c3nc(Nc4ccc(CN5CCN(C6CN(c7cccc8c7CN(C7CCC(=O)NC7=O)C8=O)C6)CC5)cn4)ncc3F)cc2n1C(C)C (centres unmarked) [Compound 99]
5. Cc1nc2c(F)cc(-c3nc(Nc4ccc(CN5CCN(C6CCN(c7ccc(N8CCC(=O)NC8=O)cc7)CC6)CC5)cn4)ncc3F)cc2n1C(C)C [Compound 109]
6. CC(=O)c1c(C)c2cnc(Nc3ccc(N4CCN(CC5CCN(c6ccc(N7CCC(=O)NC7=O)cc6)CC5)CC4)cn3)nc2n(C2CCCC2)c1=O [Compound 112]

result:
> 60%
> 60%
> 60%
> 60%
> 80%
> 80%
